System: Candida parapsilosis
Assay: Antifungal activity against Candida parapsilosis ATCC 22019 after 48 hrs by broth micro dilution technique
Format: functional, organism-based
Conditions: Lodderomyces parapsilosis, ATCC 22019, 48 h
# if measured IC50 < 40 µg/mL: TRUE  # else: FALSE

O=C(SCC(CN1CCCC1)SSC(CSC(=O)N1CCCCC1)CN1CCCC1)N1CCCCC1 (racemic)    FALSE
CCCCCCCCCc1ccc(OCCOCCOCCOCCOCCOCCOCCOCCOCCO)cc1    FALSE
O=C(SCC(CN1C=CC=CC=C1)SSC(CSC(=O)N1CCCC1)CN1C=CC=CC=C1)N1CCCC1 (racemic)    FALSE

Ask: Confirm or reject: IC50 of O=C(SCC(CN1CCCCC1)SSC(CSC(=O)N1CCCC1)CN1CCCCC1)N1CCCC1 (racemic) lies strictly below 40 µg/mL
Reply: FALSE

Ask: Please state whether IC50 is below 40 µg/mL for O=C(SCC(CN1CCCCC1)SSC(CSC(=O)N1CCCCC1)CN1CCCCC1)N1CCCCC1 (racemic)
Reply: FALSE

Ask: Bench note: check whether OC(Cn1cncn1)(Cn1cncn1)c1ccc(F)cc1F shows IC50 below 40 µg/mL
Reply: TRUE

Ask: Confirm or reject: IC50 of O=C(SCC(CN1CCCC1)SSC(CSC(=O)N1CCCC1)CN1CCCC1)N1CCCC1 (racemic) lies strictly below 40 µg/mL
Reply: TRUE

---

Test system: Candida albicans
Test: Antifungal activity against Candida albicans after 48 hrs by broth micro dilution technique
Assay type: functional, organism-based
Assign IC50 to each entry below.
Answers are plain numbers, in µg/mL.

CCCCCCCCCc1ccc(OCCOCCOCCOCCOCCOCCOCCOCCOCCO)cc1    46

Could you tell me IC50 for each of these molecules? They are listed below.
1. OC(Cn1cncn1)(Cn1cncn1)c1ccc(F)cc1F
2. O=C(SCC(CN1CCCC1)SSC(CSC(=O)N1CCCC1)CN1CCCC1)N1CCCC1 (racemic)

Reply:
0.13
43

For every item in the list below, what is its measured IC50?
1. O=C(SCC(CN1C=CC=CC=C1)SSC(CSC(=O)N1CCCC1)CN1C=CC=CC=C1)N1CCCC1 (racemic)
2. O=C(SCC(CN1CCCC1)SSC(CSC(=O)N1CCCCC1)CN1CCCC1)N1CCCCC1 (racemic)
3. CN1CCN(CC(CSC(=O)N2CCCCC2)SSC(CSC(=O)N2CCCCC2)CN2CCN(C)CC2)CC1 (racemic)

Reply:
50
47
47

---

Exercise: for every item that follows, state its recorded IC50.
Tested on: Candida albicans
Assay: Antifungal activity against Candida albicans ATCC 60193 after 48 hrs by broth micro dilution technique
Format: functional, organism-based
Conditions: ATCC 60193, 48 h
Numbers only, in µg/mL.

O=C(SCC(CN1C=CC=CC=C1)SSC(CSC(=O)N1CCCC1)CN1C=CC=CC=C1)N1CCCC1 (racemic)    42
CN1CCN(CC(CSC(=O)N2CCCCC2)SSC(CSC(=O)N2CCCCC2)CN2CCN(C)CC2)CC1 (racemic)    43
O=C(SCC(CN1C=CC=CC=C1)SSC(CSC(=O)N1CCOCC1)CN1C=CC=CC=C1)N1CCOCC1 (racemic)    42
OC(Cn1cncn1)(Cn1cncn1)c1ccc(F)cc1F [FLUCONAZOLE]    0.1

Field: next compound
Ask: So what IC50 did O=C(SCC(CN1CCCC1)SSC(CSC(=O)N1CCCCC1)CN1CCCC1)N1CCCCC1 (racemic) get with Candida albicans?
Reply: 41

---

Tested on: Candida albicans
Experiment: Antifungal activity against Candida albicans MTCC 183 after 48 hrs by broth micro dilution technique
Type: functional, organism-based
Conditions: MTCC 183, 48 h
So I've got a bunch of molecules here, and I need their MIC values.
Give bare numbers, in µg/mL.

CN1CCN(CC(CSC(=O)N2CCCCC2)SSC(CSC(=O)N2CCCCC2)CN2CCN(C)CC2)CC1 (racemic)    50
O=C(SCC(CN1C=CC=CC=C1)SSC(CSC(=O)N1CCOCC1)CN1C=CC=CC=C1)N1CCOCC1 (racemic)    50
OC(Cn1cncn1)(Cn1cncn1)c1ccc(F)cc1F    0.5
O=C(SCC(CN1CCCC1)SSC(CSC(=O)N1CCCC1)CN1CCCC1)N1CCCC1 (racemic)    50
O=C(SCC(CN1CCCC1)SSC(CSC(=O)N1CCCCC1)CN1CCCC1)N1CCCCC1 (racemic)    50

// below: MIC requested for another molecule
Ask: Look up MIC for this molecule: O=C(SCC(CN1C=CC=CC=C1)SSC(CSC(=O)N1CCCC1)CN1C=CC=CC=C1)N1CCCC1 (racemic)
Reply: 50

---

Species on record: Homo sapiens
Assay: Spermicidal activity against human spermatozoa
Assay type: functional
Exercise: for every item that follows, state its recorded MEC.
Give bare numbers, in %w/v.

Solved cases below.
O=C(SCC(CN1CCCCC1)SSC(CSC(=O)N1CCCCC1)CN1CCCCC1)N1CCCCC1 (racemic)    0.05
CCCCCCCCCc1ccc(OCCOCCOCCOCCOCCOCCOCCOCCOCCO)cc1    0.05
O=C(SCC(CN1CCCC1)SSC(CSC(=O)N1CCCCC1)CN1CCCC1)N1CCCCC1 (racemic)    0.002
CN1CCN(CC(CSC(=O)N2CCCC2)SSC(CSC(=O)N2CCCC2)CN2CCN(C)CC2)CC1 (racemic)    1

Could you now look at the following compound, please?
Ask: Form field: reported MEC of OC(Cn1cncn1)(Cn1cncn1)c1ccc(F)cc1F
Reply: 0.1

---

System: Candida parapsilosis
Test: Antifungal activity against Candida parapsilosis ATCC 22019 after 48 hrs by broth micro dilution technique
Type: functional, organism-based
Conditions: Lodderomyces parapsilosis, ATCC 22019, 48 h
Recorded Endpoint: MIC (µg/mL)
One number for each entry, in µg/mL.

Known MIC results, listed for orientation:
CCCCCCCCCc1ccc(OCCOCCOCCOCCOCCOCCOCCOCCOCCO)cc1 [NONOXYNOL 9]    50
OC(Cn1cncn1)(Cn1cncn1)c1ccc(F)cc1F [FLUCONAZOLE]    1
O=C(SCC(CN1C=CC=CC=C1)SSC(CSC(=O)N1CCOCC1)CN1C=CC=CC=C1)N1CCOCC1 (racemic)    50

Ask: Give recorded MIC with Candida parapsilosis for the following compound: O=C(SCC(CN1C=CC=CC=C1)SSC(CSC(=O)N1CCCC1)CN1C=CC=CC=C1)N1CCCC1 (racemic)
Reply: 50

---

Test system: Candida albicans
Assay: Antifungal activity against Candida albicans after 48 hrs by broth micro dilution technique
Assay type: functional, organism-based
Recorded Endpoint: IC50

O=C(SCC(CN1C=CC=CC=C1)SSC(CSC(=O)N1CCOCC1)CN1C=CC=CC=C1)N1CCOCC1 (racemic)    > 50 µg/mL
O=C(SCC(CN1CCCCC1)SSC(CSC(=O)N1CCCCC1)CN1CCCCC1)N1CCCCC1 (racemic)    > 50 µg/mL

Please turn your attention to the following entry.
Ask: Form field: IC50 recorded for O=C(SCC(CN1CCCCC1)SSC(CSC(=O)N1CCCC1)CN1CCCCC1)N1CCCC1 (racemic) with Candida albicans (enter value)
Reply: > 50 µg/mL

---

Tested on: Candida albicans
Test: Antifungal activity against Candida albicans MTCC 183 after 48 hrs by broth micro dilution technique
Format: functional, organism-based
Details: MTCC 183, 48 h
Give measured MIC for each item. Keep answers brief.

CCCCCCCCCc1ccc(OCCOCCOCCOCCOCCOCCOCCOCCOCCO)cc1 [NONOXYNOL 9]    > 50 µg/mL
O=C(SCC(CN1CCCCC1)SSC(CSC(=O)N1CCCCC1)CN1CCCCC1)N1CCCCC1 (racemic)    > 50 µg/mL

Kindly consider the entry below.
Ask: State its MIC on Candida albicans: O=C(SCC(CN1CCCCC1)SSC(CSC(=O)N1CCCC1)CN1CCCCC1)N1CCCC1 (racemic)
Reply: > 50 µg/mL
